- protocol details: Stability indicating HPLC assay and related substances on storage (Example 3)
- Type: physicochemical
- assay context: 3 months, 25° C./60% RH
observable: Known Related Substances HN75083

Previously resolved entries follow.
molecule | Known Related Substances HN75083
Br.CN1CC[C@]23c4c5ccc(O)c4O[C@H]2[C@@H](O[C@@H]2O[C@H](C(=O)O)[C@@H](O)[C@H](O)[C@H]2O)C=C[C@H]3[C@H]1C5 [Morphine-6-glucuronide hydrobromide] | 0.04%
CN1CCC23c4c5ccc(O)c4OC2C(OC2OC(C(=O)O)C(O)C(O)C2O)C=CC3C1C5.CN1CCC23c4c5ccc(O)c4OC2C(OC2OC(C(=O)O)C(O)C(O)C2O)C=CC3C1C5.O=C(O)C=CC(=O)O (stereo not drawn) [Morphine-6-glucuronide maleate] | 0.06%

Now turn to the next molecule.
Input line: If you can, please state the reported Known Related Substances HN75083 value of CN1CC[C@]23c4c5ccc(O)c4O[C@H]2[C@@H](O[C@@H]2O[C@H](C(=O)O)[C@@H](O)[C@H](O)[C@H]2O)C=C[C@H]3[C@H]1C5.Cl [Morphine-6-glucuronide hydrochloride] .
Output line: 0.03%

---

As shown below, each of these molecules has a reported Known Related Substances HN75083 value.
- protocol details: Stability indicating HPLC assay and related substances on storage (Example 3)
- Assay type: physicochemical
- assay context: 1 month, 60° C.
Write down the numeric answer in % and omit the unit.

These solved cases illustrate the format of a correct answer.
molecule | observable | val
CN1CCC23c4c5ccc(O)c4OC2C(OC2OC(C(=O)O)C(O)C(O)C2O)C=CC3C1C5.O=P(O)(O)O (stereo not shown) [Morphine-6-glucuronide phosphate] | Known Related Substances HN75083 | 0.27
CN1CCC23c4c5ccc(O)c4OC2C(OC2OC(C(=O)O)C(O)C(O)C2O)C=CC3C1C5.CN1CCC23c4c5ccc(O)c4OC2C(OC2OC(C(=O)O)C(O)C(O)C2O)C=CC3C1C5.O=C(O)C=CC(=O)O (stereo not shown) [Morphine-6-glucuronide fumarate] | Known Related Substances HN75083 | 0.02
CN1CC[C@]23c4c5ccc(O)c4O[C@H]2[C@@H](O[C@@H]2O[C@H](C(=O)O)[C@@H](O)[C@H](O)[C@H]2O)C=C[C@H]3[C@H]1C5 [Morphine-6-glucuronide base, morphine-6-β-D-glucuronide] | Known Related Substances HN75083 | 0.02

Input line: Value lookup for Known Related Substances HN75083; key = CN1CCC23c4c5ccc(O)c4OC2C(OC2OC(C(=O)O)C(O)C(O)C2O)C=CC3C1C5.CN1CCC23c4c5ccc(O)c4OC2C(OC2OC(C(=O)O)C(O)C(O)C2O)C=CC3C1C5.O=C(O)C=CC(=O)O (stereo not shown) [Morphine-6-glucuronide maleate]
Output line: 0.02

---

- protocol details: Colour of solution by visible spectrophotometry on storage (Example 3)
- Format: physicochemical
- assay context: 1 month, 60° C.; 5% w/v solution in water
- Experimental: Colour of solution by UV spectrophotometry. Each test material was stored between 2-8*C prior to placing on stability. Each material was sub-divided into 900 mg aliquots, transferred to brown opaque HDPE plastic bottles and flushed with Argon prior to sealing. […] A 5% w/v solution of test material was prepared in water and the absorbance measured at 420 nm in a 1 cm silica cell using a Unicam UV4 Visible/UV spectrophotometer.
observable: Colour (Abs@420 nm)
Enter your answer as a number in Abs@420 nm; do not include the unit.

compound | observable | val
Br.CN1CC[C@]23c4c5ccc(O)c4O[C@H]2[C@@H](O[C@@H]2O[C@H](C(=O)O)[C@@H](O)[C@H](O)[C@H]2O)C=C[C@H]3[C@H]1C5 [Morphine-6-glucuronide hydrobromide] | Colour | 0.261
CN1CCC23c4c5ccc(O)c4OC2C(OC2OC(C(=O)O)C(O)C(O)C2O)C=CC3C1C5.CN1CCC23c4c5ccc(O)c4OC2C(OC2OC(C(=O)O)C(O)C(O)C2O)C=CC3C1C5.O=S(=O)(O)O (stereo not shown) [Morphine-6-glucuronide sulphate] | Colour | 1.714
CN1CCC23c4c5ccc(O)c4OC2C(OC2OC(C(=O)O)C(O)C(O)C2O)C=CC3C1C5.O=P(O)(O)O (stereo not shown) [Morphine-6-glucuronide phosphate] | Colour | 0.787
CN1CC[C@]23c4c5ccc(O)c4O[C@H]2[C@@H](O[C@@H]2O[C@H](C(=O)O)[C@@H](O)[C@H](O)[C@H]2O)C=C[C@H]3[C@H]1C5.Cl [Morphine-6-glucuronide hydrochloride] | Colour | 1.183

Input line: Need Colour of CN1CC[C@]23c4c5ccc(O)c4O[C@H]2[C@@H](O[C@@H]2O[C@H](C(=O)O)[C@@H](O)[C@H](O)[C@H]2O)C=C[C@H]3[C@H]1C5 [Morphine-6-glucuronide base, morphine-6-β-D-glucuronide] , thanks.
Output line: 0.541

Input line: What about CN1CCC23c4c5ccc(O)c4OC2C(OC2OC(C(=O)O)C(O)C(O)C2O)C=CC3C1C5.CN1CCC23c4c5ccc(O)c4OC2C(OC2OC(C(=O)O)C(O)C(O)C2O)C=CC3C1C5.O=C(O)C=CC(=O)O (stereo not shown) [Morphine-6-glucuronide fumarate] ?
Output line: 0.794

Input line: Now consider CN1CCC23c4c5ccc(O)c4OC2C(OC2OC(C(=O)O)C(O)C(O)C2O)C=CC3C1C5.CN1CCC23c4c5ccc(O)c4OC2C(OC2OC(C(=O)O)C(O)C(O)C2O)C=CC3C1C5.O=C(O)C=CC(=O)O (stereo not shown) [Morphine-6-glucuronide maleate] .
Output line: 0.739
